Target: human recombinant OX2 (hOX2) receptor expressed in CHO cells (Homo sapiens)
Sequence (O43614 whole entry): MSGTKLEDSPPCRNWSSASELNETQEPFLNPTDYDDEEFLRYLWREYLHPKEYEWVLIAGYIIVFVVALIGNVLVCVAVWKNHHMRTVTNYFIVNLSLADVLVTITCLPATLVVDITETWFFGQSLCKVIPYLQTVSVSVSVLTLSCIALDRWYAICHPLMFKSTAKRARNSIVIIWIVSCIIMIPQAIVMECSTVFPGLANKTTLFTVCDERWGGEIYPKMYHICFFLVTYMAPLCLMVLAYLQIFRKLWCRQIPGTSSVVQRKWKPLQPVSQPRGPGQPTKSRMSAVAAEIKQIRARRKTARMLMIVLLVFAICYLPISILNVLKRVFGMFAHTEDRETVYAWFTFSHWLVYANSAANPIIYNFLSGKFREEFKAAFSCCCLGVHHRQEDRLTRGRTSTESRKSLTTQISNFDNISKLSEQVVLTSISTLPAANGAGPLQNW
Test: IP-1 accumulation assay (IP-One HTRF) in hOX2-CHO cells
Conditions: 60 min at 37° C., 11 points CRC, response as % of maximal OX-A response
Item-by-item account of EC50

Cn1cccc(C(CNS(C)(=O)=O)CO[C@H]2CC[C@@H](c3ccccc3)CC2)c1=O (single isomer, unassigned; isomer 2) [Example 4b] :: > 10 µM
CS(=O)(=O)NCC(CO[C@H]1CC[C@@H](c2ccccc2)CC1)n1cc(Cl)ccc1=O (some centres unmarked) [Example 2p] :: 1 to 10 µM
CS(=O)(=O)NCC(CO[C@H]1CC[C@@H](c2ccccc2)CC1)n1cccc(C#N)c1=O (some centres unmarked) [Example 2e] :: 1 to 10 µM
CS(=O)(=O)NCC(CO[C@H]1CC[C@@H](c2ccccc2)CC1)n1c(=O)ccc2ccccc21 (some centres unmarked) [Example 2ak] :: > 10 µM
CN(C)S(=O)(=O)NCC(CO[C@H]1CC[C@@H](c2ccccc2)CC1)n1ccccc1=O (relative stereo) [Example 1f] :: 1 to 10 µM
Cc1cc(C)c(=O)n(C(CNS(=O)(=O)CF)CO[C@H]2CC[C@@H](c3cccc(F)c3)CC2)c1 (single isomer, unassigned; isomer 1) [Example 2au] :: < 0.1 µM
Cc1cc(C)c(=O)n(C(CNS(C)(=O)=O)COC2CCN(c3ncc(F)cn3)CC2)c1 (centres unmarked) [Example 2ay] :: > 10 µM
Cc1cc(C(CNS(C)(=O)=O)CO[C@H]2CC[C@@H](c3cccc(F)c3)CC2)c(=O)n(C(F)F)c1 (single isomer, unassigned; isomer 1) [Example 5y] :: < 0.1 µM
Cc1cc(C(CNS(C)(=O)=O)CO[C@H]2CC[C@@H](c3cccc(F)c3)CC2)c(=O)n(C2CC2)c1 (some centres unmarked) [Example 5v] :: < 0.1 µM
Cc1cc(C(CNS(=O)(=O)N(C)C)CO[C@H]2CC[C@@H](c3ccccc3)CC2)n2nccc2c1 (some centres unmarked) [Example 5g] :: 0.1 to 1 µM

Q: Consider the compound shown here: Cc1cc(C(CNS(=O)(=O)N(C)C)CO[C@H]2CC[C@@H](c3cccc(F)c3)CC2)c(=O)n(C)c1 (some centres unmarked) [Example 5q] What is its recorded EC50?
A: < 0.1 µM

Q: Now consider COc1ccn(C)c(=O)c1C(CNS(C)(=O)=O)CO[C@H]1CC[C@@H](c2ccccc2)CC1 (some centres unmarked) [Example 5b] and answer again.
A: 1 to 10 µM

Q: Now consider Cc1cc(Cl)cn(C(CNS(C)(=O)=O)CO[C@H]2CC[C@@H](c3cccc(F)c3)CC2)c1=O (single isomer, unassigned; isomer 1) [Example 2ah] and answer again.
A: < 0.1 µM

Q: Now consider Cc1cc(C)c(=O)n(C(CNS(=O)(=O)CC(F)F)CO[C@H]2CC[C@@H](c3cccc(F)c3)CC2)c1 (some centres unmarked) [Example 2ao] and answer again.
A: 0.1 to 1 µM

Q: Now consider Cc1cc(C)[n+]([O-])c(C(CNS(C)(=O)=O)CO[C@H]2CC[C@@H](c3ccccc3)CC2)c1 (single isomer, unassigned; isomer 1) [Example 5k] and answer again.
A: < 0.1 µM

Q: Now consider Cc1cc(C)c(=O)n(C(CNS(=O)(=O)N(C)C)CO[C@H]2CC[C@@H](c3cccc(F)c3)CC2)c1 (some centres unmarked) [Example 2aq] and answer again.
A: < 0.1 µM

Q: Now consider CCc1cccn(C(CNS(C)(=O)=O)CO[C@H]2CC[C@@H](c3ccccc3)CC2)c1=O (single isomer, unassigned; isomer 1) [Example 2a] and answer again.
A: > 10 µM

Q: Now consider Cc1cc(C)c(=O)n(C(CNS(=O)(=O)N(C)C)CO[C@H]2CC[C@@H](C3CC3)CC2)c1 (some centres unmarked) [Example 2bc] and answer again.
A: 0.1 to 1 µM

Q: Now consider Cc1cc(C)[n+]([O-])c(C(CNS(C)(=O)=O)CO[C@H]2CC[C@@H](c3ccccc3)CC2)c1 (single isomer, unassigned; isomer 2) [Example 5l] and answer again.
A: 1 to 10 µM

Q: Now consider Cc1ccc(=O)n(C(CNS(C)(=O)=O)CO[C@H]2CC[C@@H](c3ccccc3)CC2)c1 (single isomer, unassigned; isomer 2) [Example 2k] and answer again.
A: > 10 µM

Q: Now consider Cc1cc(C)c(=O)n(C(CNS(=O)(=O)CF)CO[C@H]2CC[C@@H](c3cccc(F)c3)CC2)c1 (some centres unmarked) [Example 2at] and answer again.
A: < 0.1 µM

Q: Now consider Cc1cc(C)c(=O)n(C(CNS(C)(=O)=O)CO[C@H]2CC[C@@H](c3ccccc3)CC2)c1 (some centres unmarked) [Example 2s] and answer again.
A: < 0.1 µM

Q: Now consider Cc1cc(C(CNS(=O)(=O)CF)CO[C@H]2CC[C@@H](c3cccc(F)c3)CC2)c(=O)n(C)c1 (some centres unmarked) [Example 5m] and answer again.
A: < 0.1 µM
